# assay target: Thromboxane-A synthase (Homo sapiens)
# assay text: Inhibition of TXS in human platelet rich plasma assessed as decrease in TXB2 production at 100 uM using arachidonic acid after 5 mins by ELISA
The source made the active and inactive calls. The rule behind the calls is not given here.
readout kind: inhibition

The cases that follow already have their inhibition on record.
compound structure: CC(=O)Oc1ccccc1C(=O)O
inhibition: Active

compound structure: Cc1ccc(/C=N/NC(=O)c2cc(C)nc3c2c(C)nn3-c2ccccc2)cc1
inhibition: Active

compound structure: Cc1cc(C(=O)N/N=C/c2ccc(O)cc2)c2c(C)nn(-c3ccccc3)c2n1
inhibition: Active

compound structure: Cc1cc(C(=O)N/N=C/c2ccc(Cl)cc2)c2c(C)nn(-c3ccccc3)c2n1
inhibition: Active

Output reported inhibition of the compound Cc1cc(C(=O)N/N=C/c2ccc(Br)cc2)c2c(C)nn(-c3ccccc3)c2n1 on Thromboxane-A synthase (Homo sapiens).
Active

Fetch value of inhibition on Thromboxane-A synthase (Homo sapiens) for O=C(O)/C=C/c1ccc(Cn2ccnc2)cc1 .
Active

# assay system Thromboxane-A synthase (Homo sapiens): give inhibition of Cc1cc(C(=O)N/N=C/c2ccc([N+](=O)[O-])cc2)c2c(C)nn(-c3ccccc3)c2n1
Active

Under Thromboxane-A synthase (Homo sapiens): report inhibition of Cc1cc(C(=O)N/N=C/c2ccc(F)cc2)c2c(C)nn(-c3ccccc3)c2n1 .
Active

----------
# assay text: Hemolytic activity against human erythrocytes after 3 hrs relative to control
# Assay type: ADME, cell-based, Erythrocyte
# study conditions: read-out: Activity
Please mark Condition met if the recorded hemolysis at 3 h is equal to or greater than 10%, and Condition not met if it falls below.

Use these answered entries as a reference point.
compound structure: Cc1cc(C(=O)N/N=C/c2ccc([N+](=O)[O-])cc2)c2c(C)nn(-c3ccccc3)c2n1
class label: Condition not met
//
compound structure: Cc1cc(C(=O)N/N=C/c2ccc(O)cc2)c2c(C)nn(-c3ccccc3)c2n1
class label: Condition not met
//
compound structure: Cc1cc(C(=O)N/N=C/c2ccc(Br)cc2)c2c(C)nn(-c3ccccc3)c2n1
class label: Condition not met
//
compound structure: Cc1nn(-c2ccccc2)c2nc(C(F)(F)F)cc(C(=O)N/N=C/c3ccc(O)cc3)c12
class label: Condition met
//
compound structure: CCOc1ccc(/C=N/NC(=O)c2cc(C(F)(F)F)nc3c2c(C)nn3-c2ccccc2)cc1
class label: Condition met

Next molecule, please.
Assess whether reported hemolysis at 3 h for Cc1cc(C(=O)N/N=C/c2ccc(F)cc2)c2c(C)nn(-c3ccccc3)c2n1 sits at 10% or higher.
Condition not met

----------
# assay text: Binding affinity to DOPC/DOPS large unilamellar vesicles assessed as blue shift at 100 uM by DAPI staining based fluorescence assay
Activity calls are given as the source filed them. The calls are words filed in the database; no cut-off is given here.
readout kind: Activity

Below: 5 molecules and their reported Activity.
compound structure: Cc1cc(C(=O)N/N=C/c2ccc(F)cc2)c2c(C)nn(-c3ccccc3)c2n1
Activity: Active

compound structure: Cc1cc(C(=O)N/N=C/c2ccc(O)cc2)c2c(C)nn(-c3ccccc3)c2n1
Activity: Active

compound structure: Cc1cc(C(=O)N/N=C/c2ccc(Cl)cc2)c2c(C)nn(-c3ccccc3)c2n1
Activity: Active

compound structure: Cc1cc(C(=O)N/N=C/c2ccc(Br)cc2)c2c(C)nn(-c3ccccc3)c2n1
Activity: Active

compound structure: Cc1cc(C(=O)N/N=C/c2ccc([N+](=O)[O-])cc2)c2c(C)nn(-c3ccccc3)c2n1
Activity: Active

Now look at this one.
Please indicate Activity recorded for Cc1ccc(/C=N/NC(=O)c2cc(C)nc3c2c(C)nn3-c2ccccc2)cc1
Active
